Target: Adenosine receptor A3 (Homo sapiens, UniProt P0DMS8)
Sequence (P0DMS8 whole entry): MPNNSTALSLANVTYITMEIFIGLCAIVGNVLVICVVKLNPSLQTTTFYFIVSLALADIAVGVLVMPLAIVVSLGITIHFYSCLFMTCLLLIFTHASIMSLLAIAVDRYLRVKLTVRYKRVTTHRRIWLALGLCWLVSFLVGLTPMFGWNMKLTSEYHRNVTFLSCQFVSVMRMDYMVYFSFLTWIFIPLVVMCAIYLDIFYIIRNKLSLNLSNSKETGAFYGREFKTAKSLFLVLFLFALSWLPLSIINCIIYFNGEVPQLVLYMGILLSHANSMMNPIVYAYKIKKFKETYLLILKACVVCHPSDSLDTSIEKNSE
Test: Binding affinity to wild type A3R (unknown origin) expressed in CHO-K1 cells assessed as equilibrium binding affinity constant by nanoBRET assay
The reader will find reported Ki values listed item by item below.
Experimental Endpoint: Ki (nM)

>>> obs_value("Cn1nc(NC(=O)Nc2ccccc2)c2ccnc(NC3CCCCC3)c21")
64.6
>>> obs_value("COc1cc(Nc2nc(C#N)cc3c(C(C)C)n[nH]c23)cc(OC)c1OC")
603
>>> obs_value("COc1cc(Nc2nc(Cl)cc3c(C(C)C)n[nH]c23)cc(OC)c1OC")
631
>>> obs_value("Cn1nc(NC(=O)c2ccccc2)c2cc(Nc3ccccc3)ncc21")
234
>>> obs_value("COc1cc(Nc2nc(CN)cc3c(-c4ccccc4)n[nH]c23)cc(OC)c1OC")
132
>>> obs_value("O=C(CNc1ccccc1)Nc1n[nH]c2cnc(Nc3ccccc3)cc12")
0.115

* * *

The reader will find reported Ki values listed item by item below.
target: Adenosine receptor A3 (Homo sapiens); test: Binding affinity to wild type A3R (unknown origin) expressed in CHO-K1 cells assessed as equilibrium binding affinity constant by nanoBRET assay
Experimental Endpoint: Ki

>>> obs_value("COc1cc(Nc2nccc3c(-c4ccccc4)n[nH]c23)cc(OC)c1OC")
"100 nM"
>>> obs_value("COc1cc(Nc2nc(CNCc3ccccc3)cc3c(-c4ccccc4)n[nH]c23)cc(OC)c1OC")
"85.1 nM"
>>> obs_value("N#Cc1cc2c(-c3ccccc3)n[nH]c2c(Nc2ccccc2)n1")
"43.7 nM"
>>> obs_value("COc1cc(Nc2nc(Cl)cc3c(-c4ccccc4)n[nH]c23)cc(OC)c1OC")
"55 nM"

* * *

Biological target: Adenosine receptor A3 (Homo sapiens, UniProt P0DMS8)
Sequence (P0DMS8 whole entry): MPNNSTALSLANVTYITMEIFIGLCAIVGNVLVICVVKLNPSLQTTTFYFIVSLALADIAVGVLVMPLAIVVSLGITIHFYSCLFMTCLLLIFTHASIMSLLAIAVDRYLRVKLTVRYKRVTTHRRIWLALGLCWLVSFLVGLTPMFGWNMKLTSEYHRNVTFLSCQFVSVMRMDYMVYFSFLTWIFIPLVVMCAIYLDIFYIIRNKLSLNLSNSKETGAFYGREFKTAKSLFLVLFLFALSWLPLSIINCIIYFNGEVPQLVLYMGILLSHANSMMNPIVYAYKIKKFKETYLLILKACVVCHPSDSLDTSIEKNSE
Test: Binding affinity to N-terminal Nano-luc tagged human adenosine A3R expressed in HEK293 cells membrane
Format: cell membranes
Experimental Endpoint: Kd (nM)

>>> obs_value("COc1cccc(Cn2c(=O)n(CC3CC3)c(=O)c3c2nc2cc(OC)ccn23)c1")
9.11
